test: NIH-3T3 fibroblast cytotoxicity, dose response, cytotoxicity control, cell-based, fluorescence, Alamar Blue, secondary assay (AID 2327); assay type: functional;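 also: NIH-3T3 mouse fibroblasts cultured with fluconazole at 8 µg/mL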
The source made the active and inactive calls.
PARAMETER: EC50

> print(dat)
                                 smiles.str  parameter              test.result
1  Cc1c(N=NC2=C(O)CC(C)(C)CC2=O)c(=O)n(-c2ccccc2)n1C       EC50      > 160 µM (inactive)
2      Cc1c(Cc2ccccc2)c(=O)oc2c(O)c(O)ccc12       EC50         18.7 µM (active)
3  Cc1cccc(C(=O)O/N=C/c2c(N3CCOCC3)n(C)c3ccccc23)c1       EC50      > 150 µM (inactive)
4  CCN(CC)c1ccc(/C=N/NC(=O)c2cccc(S(=O)(=O)N3CCOCC3)c2)c(O)c1       EC50   12.5 µM (inconclusive)
5  C=CCn1c(NC(=O)c2ccc(Br)o2)c(C(=O)OCC)sc1=S       EC50  > 160 µM (inconclusive)

====

molecular target: Paired box protein Pax-8 (Homo sapiens, UniProt Q06710); assay: inhibitors of PAX8-driven TPO luciferase reporter, dose response, RMG-I cells, cherry-pick (AID 687027); format: functional, cell-based;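 also: luciferase reporter driven by Pax8 target thyroperoxidase promoter measured by SteadyGlo luminescence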
Sequence (Q06710 whole entry): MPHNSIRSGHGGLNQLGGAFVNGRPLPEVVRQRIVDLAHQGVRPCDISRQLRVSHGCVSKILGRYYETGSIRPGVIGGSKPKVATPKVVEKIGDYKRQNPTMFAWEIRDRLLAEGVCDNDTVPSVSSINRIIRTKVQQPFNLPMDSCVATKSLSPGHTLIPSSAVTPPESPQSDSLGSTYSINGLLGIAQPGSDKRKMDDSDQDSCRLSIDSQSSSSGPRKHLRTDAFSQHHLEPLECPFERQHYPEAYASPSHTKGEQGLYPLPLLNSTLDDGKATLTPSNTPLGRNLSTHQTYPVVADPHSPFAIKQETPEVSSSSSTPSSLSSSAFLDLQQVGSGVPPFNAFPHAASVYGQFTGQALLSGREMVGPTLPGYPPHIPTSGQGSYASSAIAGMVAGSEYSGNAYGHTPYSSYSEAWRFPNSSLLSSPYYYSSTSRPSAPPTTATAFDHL
The source made the active and inactive calls.
List of AC50 values.
PARAMETER: AC50

> print(dat)
                                    compound                             tested.system         test.result
 1  CN(C)c1ncnc2c1nnn2C1OC(CO)C(O)C1O (stereo not drawn)  Paired box protein Pax-8 (Homo sapiens, UniProt Q06710)  < 0.26 µM (active)
 2  CCOCCCNC(=O)c1ccc2c(c1)N=C(CC)c1cc(Br)ccc1S2  Paired box protein Pax-8 (Homo sapiens, UniProt Q06710)    1.22 µM (active)
 3  CC(=O)NC(c1ccc(C(C)C)cc1)c1ccc2cccnc2c1O (stereo not drawn)  Paired box protein Pax-8 (Homo sapiens, UniProt Q06710)    2.03 µM (active)
 4  COc1cccc(-c2ccc3c(c2)[C@H]2[C@H](CCN2S(=O)(=O)c2ccccc2OC)[C@@H](CO)N3C)c1  Paired box protein Pax-8 (Homo sapiens, UniProt Q06710)    11.1 µM (active)
 5  COC(=O)C12OCC34C(CC5C(C)=C(O)C(=O)CC5(C)C3C(O)C1O)OC(=O)C(OC(=O)C=C(C)C)C24 (stereo not drawn)  Paired box protein Pax-8 (Homo sapiens, UniProt Q06710)  < 0.26 µM (active)
 6  Cc1cc(C(=O)Nc2cccc3c2O[C@H](CN(C)Cc2ccc(Oc4ccccc4)cc2)[C@@H](C)CN([C@H](C)CO)C3=O)n(C)n1  Paired box protein Pax-8 (Homo sapiens, UniProt Q06710)    13.2 µM (active)
 7  N#CC(C#N)=NNc1ccc(-n2ccc(C(F)(F)F)n2)cc1  Paired box protein Pax-8 (Homo sapiens, UniProt Q06710)    3.44 µM (active)
 8  C[C@H](CO)N1C[C@H](C)[C@@H](CN(C)Cc2ccc(Cl)c(Cl)c2)OCCCC[C@H](C)Oc2ccc(NC(=O)Nc3ccc(C(F)(F)F)cc3)cc2C1=O  Paired box protein Pax-8 (Homo sapiens, UniProt Q06710)    4.17 µM (active)
 9    NC1=C(Cl)C(=O)c2ccc(S(N)(=O)=O)cc2C1=O  Paired box protein Pax-8 (Homo sapiens, UniProt Q06710)    1.47 µM (active)
10  COc1ccc(NC(=O)c2c(Nc3ccccc3)sc(C(=O)c3ccc(F)cc3)c2N)cc1  Paired box protein Pax-8 (Homo sapiens, UniProt Q06710)    1.69 µM (active)
11  Cc1ccc(C(=O)N/C(=C\c2ccc(-c3ccc(Br)cc3)o2)C(=O)NCCCN(C)C)cc1  Paired box protein Pax-8 (Homo sapiens, UniProt Q06710)    17.4 µM (active)
12  C[C@@H]1CN([C@@H](C)CO)C(=O)c2ccccc2-c2ccccc2CO[C@@H]1CN(C)Cc1ccc2c(c1)OCCN2C  Paired box protein Pax-8 (Homo sapiens, UniProt Q06710)    29.5 µM (active)
13  C[C@H]1CCCCO[C@@H](CN(C)S(=O)(=O)c2cccs2)[C@@H](C)CN([C@@H](C)CO)C(=O)c2cc(NS(=O)(=O)c3ccc(Cl)cc3)ccc2O1  Paired box protein Pax-8 (Homo sapiens, UniProt Q06710)    7.93 µM (active)

Taken from ChEMBL document CHEMBL1201862.
